Would you mind telling me the reported log10 IC50 of each entry?
- measured_target: human B-Raf (Homo sapiens, UniProt P15056)
- Construct: Flag; GST; made in house; host or cells: Sf9 insect cells (B-Raf); E. coli (MEK1-GST)
- Sequence (P15056 whole entry): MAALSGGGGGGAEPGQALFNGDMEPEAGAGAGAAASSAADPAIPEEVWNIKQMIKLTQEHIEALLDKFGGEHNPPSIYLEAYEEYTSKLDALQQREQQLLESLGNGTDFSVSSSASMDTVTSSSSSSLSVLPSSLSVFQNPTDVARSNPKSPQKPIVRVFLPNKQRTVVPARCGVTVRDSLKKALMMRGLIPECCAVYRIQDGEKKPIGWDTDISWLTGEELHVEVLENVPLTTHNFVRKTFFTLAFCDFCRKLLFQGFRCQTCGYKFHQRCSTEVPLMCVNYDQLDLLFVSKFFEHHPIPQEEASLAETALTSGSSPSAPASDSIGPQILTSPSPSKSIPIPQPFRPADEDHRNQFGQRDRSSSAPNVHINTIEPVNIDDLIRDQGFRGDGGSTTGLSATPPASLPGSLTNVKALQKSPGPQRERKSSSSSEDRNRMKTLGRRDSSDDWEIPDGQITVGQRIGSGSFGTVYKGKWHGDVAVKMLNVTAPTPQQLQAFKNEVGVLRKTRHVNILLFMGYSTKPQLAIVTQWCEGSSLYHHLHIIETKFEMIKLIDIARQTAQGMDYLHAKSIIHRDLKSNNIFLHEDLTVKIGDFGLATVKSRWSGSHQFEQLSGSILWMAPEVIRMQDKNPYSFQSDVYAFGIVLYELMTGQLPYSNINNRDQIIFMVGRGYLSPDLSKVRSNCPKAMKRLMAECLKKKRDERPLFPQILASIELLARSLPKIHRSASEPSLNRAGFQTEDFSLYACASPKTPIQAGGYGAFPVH
- assay_method_text: B-Raf Kinase to MEK1 ELISA
- Format: biochemical
- condition_summary: median; cpd concentrations from 10 μM to 30 nM in half log dilutions; read-out: Median IC50
// stored as log10 of IC50 expressed in µM

Illustrative cases are given below, each with its answer.
CCOC(=O)c1cnn2c(-c3cccc(NC(=O)Nc4cccc(C(F)(F)F)c4)c3)ccnc12 = -0.17
CCOC(=O)c1cnn2c(-c3cccc(NC(=O)Nc4ccc(Cl)c(Cl)c4)c3)ccnc12 = -0.47
CN(C)Cc1cccc(-c2cnn3c(-c4cccc(NC(=O)c5cccc(C(F)(F)F)c5)c4)ccnc23)c1 = -1.36
O=C(Nc1cccc(-c2ccnc3c(Br)cnn23)c1)c1ccc(F)c(C(F)(F)F)c1 = 0.62
COCC(=O)Nc1ccc(-c2cnn3c(-c4cccc(NC(=O)c5cccc(C(F)(F)F)c5)c4)ccnc23)cc1 = -0.93

Give measured log10 IC50 for every item shown.
1. COC[C@H]1CCCN1c1cc2nccc(-c3cccc(NC(=O)c4cccc(C(F)(F)F)c4)c3)n2n1
2. CCOC(=O)c1cnn2c(-c3cccc(NC(=O)c4ccc(F)c(C(F)(F)F)c4)c3)ccnc12
3. CCOC(=O)c1cnn2c(-c3cccc(NC(=O)c4cccc(OC(F)(F)F)c4)c3)ccnc12
4. O=C(Nc1cccc(-c2ccnc3c(C(=O)OCC(F)(F)F)cnn23)c1)c1cccc(C(F)(F)F)c1
5. O=C(Nc1cccc(-c2ccnc3c(C(=O)NCCCn4ccnc4)cnn23)c1)c1cccc(C(F)(F)F)c1
6. O=C(Nc1cccc(-c2ccnc3c(-c4ccncc4)cnn23)c1)Nc1ccc(F)c(C(F)(F)F)c1
7. CN(CCN)c1cc(-c2cc3nccc(-c4cccc(NC(=O)c5cccc(C(F)(F)F)c5)c4)n3n2)ccn1
8. O=C(Nc1cccc(-c2ccnc3cc(-c4ccnc(NCCN5CCNC5=O)c4)nn23)c1)c1cccc(C(F)(F)F)c1

output:
1. 0.40
2. 1.23
3. 0.16
4. -0.05
5. 0.32
6. -0.30
7. 0.31
8. -0.96

input: State the recorded log10 IC50 for this entry: O=C(Cc1nnn[nH]1)Nc1cccc(-c2cnn3c(-c4cccc(NC(=O)c5cccc(C(F)(F)F)c5)c4)ccnc23)c1
output: -0.91
